PT listing for selected compounds.
- Species on record: Rattus norvegicus
- method: Open TG-GATES - Regimen: Single
- Format: toxicity, organism-based, Sprague-Dawley
- Set-up: regimen Single, gender Male, age 6 weeks
- condition set: in vivo, po, 100 mg/kg, 24 h, tissue Blood, route gavage, dose level Low
Give the number; s is assumed, so skip it.

Before answering, review these 3 worked examples.
[
  {
    "compound": "C[C@H](CS)C(=O)N1CCC[C@H]1C(=O)O",
    "readout kind": "PT",
    "recorded result": 11.6
  },
  {
    "compound": "O=C(O)c1cc(/N=N/c2ccc(S(=O)(=O)Nc3ccccn3)cc2)ccc1O",
    "readout kind": "PT",
    "recorded result": 12.5
  },
  {
    "compound": "Clc1ccccc1CN1CCc2sccc2C1",
    "readout kind": "PT",
    "recorded result": 12
  }
]

// recorded PT for CCc1cc(C(N)=S)ccn1 [ETHIONAMIDE] : 12.2
